Experiment: in vivo
Settings: male, CD-1, mouse, iv, 10 mg/kg

molecule | Cmax / µM
O=C(O)CCC(CP(=O)(O)O)C(=O)O (stereo not shown) [Prodrug 2-PMPA, 2-(Phosphonomethyl)-pentanedioic acid] | 109

----------
Assay: in vivo
Conditions: male, CD-1, mouse, iv, 10 mg/kg

molecule | Kp
O=C(O)CCC(CP(=O)(O)O)C(=O)O (stereo not shown) [Prodrug 2-PMPA, 2-(Phosphonomethyl)-pentanedioic acid] | 0.015

----------
Assay: in vivo
Details: male, CD-1, mouse, iv, 10 mg/kg

compound | unitsText | AUC(0-t)
O=C(O)CCC(CP(=O)(O)O)C(=O)O (stereo not shown) [Prodrug 2-PMPA, 2-(Phosphonomethyl)-pentanedioic acid] | µM·h | 104
